- System: HEK-293T
- assay-overview: Incucyte cell viability with HEK293T; also: filed as whole numbers so only -1 and 0 and 1 occur
- Assay type: toxicity, cell-based
- experimental-setup: human, 12 h, 10 µM, compound concentration 10 uM, replicate number 1, timepoint 12 hours
reported-property: Growth Rate
# print the numeric value only

O=S1(=O)c2cccc3cccc(c23)N1CCCN1CCN(c2ccc(F)cc2)CC1 [FANANSERIN] :: 0
CC(C)CC(=O)Nc1[nH]nc2c1CN(C(=O)C1CCN(C)CC1)C2(C)C [PHA-793887] :: 0
Cc1noc([C@H]2C[C@@H](c3ccc(C(F)(F)F)cc3)CN(C(=O)N3CCS(=O)(=O)C3)C2)n1 [BAY-448] :: 0
COc1ccc(-c2ccc3cc(C(=O)O)ccc3c2)cc1C12CC3CC(CC(C3)C1)C2 :: 0
COc1ccc(S(=O)(=O)N2c3ccc(Cl)cc3[C@](O)(c3ccccc3Cl)[C@@H]2C(=O)N2CCC[C@H]2C(N)=O)cc1OC [RELCOVAPTAN] :: 0

Task: Using the record for `CCc1ccc(OCc2ccccc2C(=O)Nc2ccc3nc(C)cc(N)c3c2)cc1.Cl` , state its measured Growth Rate.
Result: 0

Task: Name the recorded Growth Rate of the compound listed here: Cc1cc(-n2nc(Cc3cc(F)cc(C(F)(F)F)c3)nc2C)ccc1C(N)=O [TP-024]
Result: 0

Task: For the compound `CN(C)C(=O)/C(C#N)=C/c1ccc(-c2nc3cnc4c(ccn4C)c3n2C2CCCCC2)o1` , give its reported Growth Rate.
Result: 0

Task: Using known records, supply Growth Rate for C[C@]1(O)C[C@@H](c2nc(-c3ccc4ccc(-c5ccccc5)nc4c3)c3c(N)nccn32)C1 [LINSITINIB]
Result: 0

Task: Give the value of Growth Rate reported for the following: CNC(=O)Nc1ccc2c(c1)[C@@]1(CC2)OC(=O)N(CC(=O)N(Cc2ccc(F)cc2)[C@@H](C)C(F)(F)F)C1=O [A-486]
Result: 0

Task: Given Cc1cc(C(C)(C)C)c(O)c(C)c1CC1=NCCN1.Cl [OXYMETAZOLINE HYDROCHLORIDE] , respond with its Growth Rate.
Result: 1

Task: Tell me measured Growth Rate for C[C@H](c1ccc(F)cc1)N(Cc1cccc(C(=O)O)c1)C(=O)c1cnc2ccccc2c1 [PF-05105679] please.
Result: 1

###

- System: Fibroblast
- assay-overview: Incucyte cell viability with human fibroblast; also: filed as whole numbers so only -1 and 0 and 1 occur
- Type: toxicity, cell-based
- experimental-setup: 12 h, 10 µM, compound concentration 10 uM, replicate number 2, timepoint 12 hours
reported-property: Growth Rate
A bare number is all that is needed in reply.

Recorded results for 10 compounds are shown here.
COC(=O)/C=C/c1cccc(N(Cc2ccc(-c3ccc(N(C)C)cc3)cc2)C(=O)C2CCCCC2)c1 :: 0
CN1CCc2c(c3ccccc3n2Cc2ccc(C(=O)NO)cc2)C1 :: 0
C#Cc1cccc(Nc2ncnc3cc(OCCOC)c(OCCOC)cc23)c1 :: 1
CC1CCN(CC[C@H]2CCCN2S(=O)(=O)c2cccc(O)c2)CC1.Cl :: 1
COc1cc2c(cc1NS(=O)(=O)c1ccc(Br)cc1C)n(C)c(=O)n2C :: 0
CC#CC(=O)N1CCC[C@H]1c1nc(-c2ccc(C(=O)Nc3ccccn3)cc2)c2c(N)nccn12 :: 1
Cl.Clc1cccc(COc2cncc(N3CCNCC3)n2)c1 :: 0
CO[C@@H](C)c1c(Nc2ccc([C@H](N(C)C(=O)C3CCS(=O)(=O)CC3)C(F)(F)F)cc2)cnc2cc(Cl)nn12 :: 1
Cc1c[nH]c2nccc(Oc3c(F)cc(Nc4cc(Cl)nc(N)n4)cc3F)c12 :: 1
CN1C[C@H](Nc2cnn(C)c(=O)c2Br)C[C@H](c2ccccc2)C1 :: 0

Task: Fill in reported Growth Rate for this entry: O=C(c1cc2c(cc1F)OC(c1ccc(F)cc1)(c1ccc(Cl)cc1Cl)O2)N1CCOCC1 (configuration not stated)
Result: 0

Task: Fill in Growth Rate for record `O=C1CCc2cc(Nc3cc(OC4CCOCC4)c([N+](=O)[O-])cc3Cl)ccc2N1`
Result: 1

Task: Determine its reported Growth Rate: `C[C@H](N)COC(=O)[C@@H](CCCCN)NC(=O)Cc1c(-c2ccc3ccccc3c2)[nH]c2c1ccc1ccccc12`
Result: 0

Task: Respond only with Growth Rate recorded for `C[C@H](NC(=O)c1cnc2n1[C@](C)(Cc1ccc(C#N)cc1)C(=O)N2c1cc(Cl)c(F)c(Cl)c1)C(=O)NC1(c2ccccn2)CC1`
Result: 0

Task: Return value of Growth Rate for input `O[C@H]1CC[C@H](Nc2ncc3nc(Nc4c(F)cc(F)cc4F)n([C@H]4CCOC4)c3n2)CC1` , no commentary.
Result: 0

Task: Tell me its Growth Rate given Cc1ccccc1C(=O)Nc1ccc(C(=O)N2CCCC(O)c3cc(Cl)ccc32)c(C)c1 (configuration not stated) as the entry.
Result: 0

Task: Tell us which Growth Rate value is on record for `CN1CCN(Cc2ccc(Nc3ncc(Cl)c(Nc4ccccc4S(=O)(=O)N(C)C)n3)cc2)CC1`
Result: 0

###

- Tested on: U2OS
- assay-overview: Multiplex assay against U2OS
- Type: toxicity, cell-based
- experimental-setup: human, 12 h, 10 µM, compound concentration 10 uM, replicate 1
Returns the class for an entry based on its Population Healthy Nuclei (%). Class ranges: 0: < 70%; 1: ≥ 70% and < 80%; 2: ≥ 80%

COc1ccccc1CN[C@H]1C2CCN(CC2)[C@H]1C(c1ccccc1)c1ccccc1 [CP-96345] :: 0
C=CC(=O)Nc1ccc2[nH]c(=O)n(C3CCN(Cc4ccc(-c5nc6cc[nH]c(=O)c6cc5-c5ccccc5)cc4)CC3)c2c1 [Borussertib] :: 2
CC(C)(C)NC[C@H](O)COc1nsnc1N1CCOCC1 [TIMOLOL] :: 1
Cc1nc(N2CC[C@H](O)C2)ncc1-c1cc(C(F)(F)F)cc2[nH]ncc12 :: 2
Cc1ccc(C)c(Oc2ccncc2C(=O)N2CCN(C3CC3)c3ccccc32)c1 :: 0

Task: Bin this entry: Cc1cccc(CN2CCN(C(c3ccccc3)c3ccc(Cl)cc3)CC2)c1.Cl.Cl (centres undefined)
Result: 1

Task: Category of `C=CC(=O)Nc1cccc(Sc2nc(Nc3ccc(N4CCN(C)CC4)cc3)ncc2Cl)c1` :
Result: 2

###

- System: U2OS
- assay-overview: Multiplex assay against U2OS
- Assay type: toxicity, cell-based
- experimental-setup: human, 24 h, 1 µM, compound concentration 1 uM, replicate 1
reported-property: Population Mitotic Cells (%)
Write down the numeric answer in % and omit the unit.

The following molecules have reported results that may help.
Cc1ccc2c(c1)c1c(n2CCc2ccc(C)nc2)CCN(C)C1 [LATREPIRDINE] :: 52
COc1cc2ncn(-c3cc(OCc4ccccc4C(F)(F)F)c(C(N)=O)s3)c2cc1OC [GW843682X] :: 37
CC1=C(C(=O)Nc2cc3cn[nH]c3cc2F)C(c2ccc(C(F)(F)F)cc2)CC(=O)N1 (stereo not given) :: 43
CC(C)Oc1ccccc1C(=O)Nc1ccccc1C(=O)Nc1cccc(S(=O)(=O)C(F)(F)F)c1 :: 44
O=C(c1cc2c(cc1F)OC(c1ccc(F)cc1)(c1ccc(Cl)cc1Cl)O2)N1CCOCC1 (stereo not given) :: 55
O=c1[nH]c2ccccc2n1C1CCN(Cc2ccc(-c3[nH]c4cc5ncnc5cc4nc3-c3ccccc3)cc2)CC1 :: 57
COc1ccccc1CN[C@H]1C2CCN(CC2)[C@H]1C(c1ccccc1)c1ccccc1 :: 54
O=c1cc(N2CCOCC2)oc2c(-c3cccc4c3sc3ccccc34)cccc12 :: 75
Cc1nc(N2CC[C@H](O)C2)ncc1-c1cc(C(F)(F)F)cc2[nH]ncc12 :: 72
COc1ccc(-c2ccc3ncc4c(c3c2)n(-c2ccc(N3CCNCC3)c(C(F)(F)F)c2)c(=O)n4C)cn1.O=C(O)/C=C\C(=O)O :: 1

Please look at the following molecule next.
Task: Tell me Population Mitotic Cells (%) of `Cc1c[nH]c2nccc(Oc3c(F)cc(Nc4cc(Cl)nc(N)n4)cc3F)c12` when tested on U2OS.
Result: 62

###

- Test system: Fibroblast
- assay-overview: Multiplex assay against human fibroblast
- Type: toxicity, cell-based
- experimental-setup: 12 h, 1 µM, compound concentration 1 uM, replicate 1
reported-property: Population Hoechst High Intensity Objects (%)
Write the value in % as a bare number.

Recorded Population Hoechst High Intensity Objects (%), per entry:
O=c1[nH]c2ccccc2n1C1CCN(Cc2ccc(-c3[nH]c4cc5ncnc5cc4nc3-c3ccccc3)cc2)CC1 :: 17
O=c1cc(N2CCOCC2)oc2c(-c3cccc4c3sc3ccccc34)cccc12 :: 13
C=CC(=O)Nc1cccc(Oc2nc(Nc3ccc(N4CCN(C)CC4)cc3OC)ncc2Cl)c1 :: 24

Task: Give recorded Population Hoechst High Intensity Objects (%). CC(C)(C)NC[C@H](O)COc1nsnc1N1CCOCC1 [TIMOLOL]
Result: 14

Task: Please supply the value of reported Population Hoechst High Intensity Objects (%) for the item `Cc1ccc(C)c(Oc2ccncc2C(=O)N2CCN(C3CC3)c3ccccc32)c1`
Result: 13

Task: Consider the molecule `CC(C)OC(=O)N1CCC(Oc2ncnc3c2cnn3-c2ccc(S(C)(=O)=O)cc2F)CC1` and give its recorded Population Hoechst High Intensity Objects (%).
Result: 13

Task: Provide measured Population Hoechst High Intensity Objects (%) value, entry: `CC(C)Oc1ccccc1C(=O)Nc1ccccc1C(=O)Nc1cccc(S(=O)(=O)C(F)(F)F)c1`
Result: 14

Task: Quote Population Hoechst High Intensity Objects (%) reported for `CNC(=O)Nc1ccc(-c2nc(N3CC4CCC(C3)O4)c3cnn(C4CCC5(CC4)OCCO5)c3n2)cc1` please.
Result: 14

Task: Answer with the recorded Population Hoechst High Intensity Objects (%) for the molecule listed here: Cc1cccc(CN2CCN(C(c3ccccc3)c3ccc(Cl)cc3)CC2)c1.Cl.Cl (centres undefined)
Result: 22
